molecular target: BFL-1/A1ΔC (Homo sapiens (Human), UniProt Q16548); assay: Competitive fluorescence polarization binding assay, BFL-1/A1 (FITC-BID BH3); conditions: Table A
Sequence (Q16548 1-153): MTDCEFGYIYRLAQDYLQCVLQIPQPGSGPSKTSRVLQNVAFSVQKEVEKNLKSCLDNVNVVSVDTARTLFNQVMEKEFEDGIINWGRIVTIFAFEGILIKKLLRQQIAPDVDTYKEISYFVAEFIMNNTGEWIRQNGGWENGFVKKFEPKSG
pIC50: −log10 of the molar value.
Listing: pIC50 of selected compounds
reportedProperty: pIC50

[[record]]
compound = "Cc1cs/c(=N\\C(C)C(C)C)n1/N=C/c1ccc(O)c(O)c1O (centres unmarked)"
testedon = "BFL-1/A1ΔC (Homo sapiens (Human), UniProt Q16548)"
reportedproperty = "pIC50"
reading = 5.68

[[record]]
compound = "Cc1cs/c(=N\\C2CCCC2)n1/N=C/c1ccc(O)c(O)c1O"
testedon = "BFL-1/A1ΔC (Homo sapiens (Human), UniProt Q16548)"
reportedproperty = "pIC50"
reading = 6.20

[[record]]
compound = "Cc1s/c(=N\\C2CCCCC2)n(/N=C/c2cc(O)c(O)cc2O)c1C"
testedon = "BFL-1/A1ΔC (Homo sapiens (Human), UniProt Q16548)"
reportedproperty = "pIC50"
reading = 6.24

[[record]]
compound = "CC(C)(C)c1cs/c(=N\\C2CCCCC2)n1/N=C/c1ccc(O)c(O)c1"
testedon = "BFL-1/A1ΔC (Homo sapiens (Human), UniProt Q16548)"
reportedproperty = "pIC50"
reading = 5.68

[[record]]
compound = "Oc1ccc(/C=N/n2c(C3CC3)cs/c2=N\\c2ccccc2)c(O)c1O [183-21]"
testedon = "BFL-1/A1ΔC (Homo sapiens (Human), UniProt Q16548)"
reportedproperty = "pIC50"
reading = 6.14

[[record]]
compound = "Oc1ccc(/C=N/n2c(C3CC3)cs/c2=N\\c2ccccc2)c(O)c1O [190-20]"
testedon = "BFL-1/A1ΔC (Homo sapiens (Human), UniProt Q16548)"
reportedproperty = "pIC50"
reading = 6.44

[[record]]
compound = "Oc1ccc(/C=N/n2c(-c3cccs3)cs/c2=N\\c2ccccc2)c(O)c1O"
testedon = "BFL-1/A1ΔC (Homo sapiens (Human), UniProt Q16548)"
reportedproperty = "pIC50"
reading = 5.77

[[record]]
compound = "Cc1cs/c(=N\\C2CCCCC2)n1/N=C/c1cc(O)c(O)c(O)c1"
testedon = "BFL-1/A1ΔC (Homo sapiens (Human), UniProt Q16548)"
reportedproperty = "pIC50"
reading = 6.50

[[record]]
compound = "Cc1cs/c(=N\\C2CCCc3ccccc32)n1/N=C/c1ccc(O)c(O)c1O (centres unmarked)"
testedon = "BFL-1/A1ΔC (Homo sapiens (Human), UniProt Q16548)"
reportedproperty = "pIC50"
reading = 5.96

[[record]]
compound = "Cc1cs/c(=N\\C2CC3CCC2C3)n1/N=C/c1cc(O)c(O)cc1O (centres unmarked) [187-79]"
testedon = "BFL-1/A1ΔC (Homo sapiens (Human), UniProt Q16548)"
reportedproperty = "pIC50"
reading = 6.57

[[record]]
compound = "CCOc1ccccc1/N=c1\\scc(C)n1/N=C/c1ccc(O)c(O)c1O"
testedon = "BFL-1/A1ΔC (Homo sapiens (Human), UniProt Q16548)"
reportedproperty = "pIC50"
reading = 5.60

[[record]]
compound = "Oc1cc(O)c(/C=N/n2c(C3CC3)cs/c2=N\\C2CCCCC2)cc1O"
testedon = "BFL-1/A1ΔC (Homo sapiens (Human), UniProt Q16548)"
reportedproperty = "pIC50"
reading = 7.59

[[record]]
compound = "CCc1s/c(=N\\C2CCCCC2)n(/N=C/c2ccc(O)c(O)c2O)c1C(C)(C)C"
testedon = "BFL-1/A1ΔC (Homo sapiens (Human), UniProt Q16548)"
reportedproperty = "pIC50"
reading = 5.55

[[record]]
compound = "COC(=O)Cc1cs/c(=N\\C2CCCCC2)n1/N=C/c1ccc(O)c(O)c1O"
testedon = "BFL-1/A1ΔC (Homo sapiens (Human), UniProt Q16548)"
reportedproperty = "pIC50"
reading = 6.00

[[record]]
compound = "Oc1ccc(/C=N/n2c(C3CC3)cs/c2=N\\C2CCCC2)c(O)c1O"
testedon = "BFL-1/A1ΔC (Homo sapiens (Human), UniProt Q16548)"
reportedproperty = "pIC50"
reading = 6.22

[[record]]
compound = "Oc1ccc(/C=N/NC(=S)NC2CCCCC2)c(O)c1O"
testedon = "BFL-1/A1ΔC (Homo sapiens (Human), UniProt Q16548)"
reportedproperty = "pIC50"
reading = 5.29

[[record]]
compound = "Oc1ccc(/C=N/n2c(C3CC3)cs/c2=N\\C2CCCCC2)c(O)c1O"
testedon = "BFL-1/A1ΔC (Homo sapiens (Human), UniProt Q16548)"
reportedproperty = "pIC50"
reading = 6.11

[[record]]
compound = "Oc1ccc(/C=N/n2c3c(s/c2=N\\C2CCCCC2)CCCC3)c(O)c1O"
testedon = "BFL-1/A1ΔC (Homo sapiens (Human), UniProt Q16548)"
reportedproperty = "pIC50"
reading = 5.89

[[record]]
compound = "Cc1cs/c(=N\\c2ccccc2)n1/N=C/c1ccc(O)c(O)c1"
testedon = "BFL-1/A1ΔC (Homo sapiens (Human), UniProt Q16548)"
reportedproperty = "pIC50"
reading = 5.09

[[record]]
compound = "Cc1cs/c(=N\\C2CCCCC2)n1/N=C/c1ccc(O)c(O)c1"
testedon = "BFL-1/A1ΔC (Homo sapiens (Human), UniProt Q16548)"
reportedproperty = "pIC50"
reading = 6.55

[[record]]
compound = "CC(C)C(C)/N=c1\\scc(C2CC2)n1/N=C/c1cc(O)c(O)cc1O (centres unmarked)"
testedon = "BFL-1/A1ΔC (Homo sapiens (Human), UniProt Q16548)"
reportedproperty = "pIC50"
reading = 5.96

[[record]]
compound = "Cc1s/c(=N\\C2CCCCC2)n(/N=C/c2cc(O)c(O)cc2O)c1C1CC1"
testedon = "BFL-1/A1ΔC (Homo sapiens (Human), UniProt Q16548)"
reportedproperty = "pIC50"
reading = 6.93

[[record]]
compound = "CC(C)(C)c1cs/c(=N\\C2CCCCC2)n1/N=C/c1cc(O)c(O)cc1F"
testedon = "BFL-1/A1ΔC (Homo sapiens (Human), UniProt Q16548)"
reportedproperty = "pIC50"
reading = 5.04

[[record]]
compound = "Cc1cs/c(=N\\C2CCCc3ccccc32)n1/N=C/c1cc(O)c(O)cc1O (centres unmarked)"
testedon = "BFL-1/A1ΔC (Homo sapiens (Human), UniProt Q16548)"
reportedproperty = "pIC50"
reading = 6.84

[[record]]
compound = "CC(C)(C)c1cs/c(=N\\C2CCCCC2)n1/N=C/c1cc(O)c(O)cc1O"
testedon = "BFL-1/A1ΔC (Homo sapiens (Human), UniProt Q16548)"
reportedproperty = "pIC50"
reading = 7.38

[[record]]
compound = "COc1cc(/C=N/n2c(C(C)(C)C)cs/c2=N\\C2CCCCC2)c(O)cc1O"
testedon = "BFL-1/A1ΔC (Homo sapiens (Human), UniProt Q16548)"
reportedproperty = "pIC50"
reading = 4.82

[[record]]
compound = "Cc1cs/c(=N\\C2CCCCC2)n1/N=C/c1c(O)cc(O)cc1O"
testedon = "BFL-1/A1ΔC (Homo sapiens (Human), UniProt Q16548)"
reportedproperty = "pIC50"
reading = 4.51

[[record]]
compound = "Oc1ccc(/C=N/N2/C(=N/C3CCCCC3)SCC2(O)C(F)(F)F)c(O)c1O (centres unmarked)"
testedon = "BFL-1/A1ΔC (Homo sapiens (Human), UniProt Q16548)"
reportedproperty = "pIC50"
reading = 5.92

[[record]]
compound = "CC(C)(C)c1cs/c(=N\\C2CCCCC2)n1/N=C/c1ccc(O)c(O)c1O"
testedon = "BFL-1/A1ΔC (Homo sapiens (Human), UniProt Q16548)"
reportedproperty = "pIC50"
reading = 6.04

[[record]]
compound = "CC(C)(C)c1cs/c(=N\\C2CCCCC2)n1/N=C/c1cc(O)c(O)c(O)c1"
testedon = "BFL-1/A1ΔC (Homo sapiens (Human), UniProt Q16548)"
reportedproperty = "pIC50"
reading = 6.12

[[record]]
compound = "Cc1s/c(=N\\C2CCCCC2)n(/N=C/c2ccc(O)c(O)c2O)c1C"
testedon = "BFL-1/A1ΔC (Homo sapiens (Human), UniProt Q16548)"
reportedproperty = "pIC50"
reading = 6.15

[[record]]
compound = "Cc1cs/c(=N\\C2CCCCC2)n1/N=C/c1cc(O)c(O)cc1F"
testedon = "BFL-1/A1ΔC (Homo sapiens (Human), UniProt Q16548)"
reportedproperty = "pIC50"
reading = 5.08

[[record]]
compound = "Cc1cs/c(=N\\c2ccccc2)n1/N=C/c1ccc(O)c(O)c1O"
testedon = "BFL-1/A1ΔC (Homo sapiens (Human), UniProt Q16548)"
reportedproperty = "pIC50"
reading = 6.58

[[record]]
compound = "CC(C)C(C)/N=c1\\scc(C(C)(C)C)n1/N=C/c1ccc(O)c(O)c1O (centres unmarked)"
testedon = "BFL-1/A1ΔC (Homo sapiens (Human), UniProt Q16548)"
reportedproperty = "pIC50"
reading = 5.82

[[record]]
compound = "Cc1cs/c(=N\\CC2CCCCC2)n1/N=C/c1ccc(O)c(O)c1O"
testedon = "BFL-1/A1ΔC (Homo sapiens (Human), UniProt Q16548)"
reportedproperty = "pIC50"
reading = 5.96

[[record]]
compound = "Oc1ccc(/C=N/n2c(-c3cccs3)cs/c2=N\\C2CCCCC2)c(O)c1O"
testedon = "BFL-1/A1ΔC (Homo sapiens (Human), UniProt Q16548)"
reportedproperty = "pIC50"
reading = 6.41

[[record]]
compound = "Cc1s/c(=N\\C2CCN(C(=O)OC(C)(C)C)CC2)n(/N=C/c2ccc(O)c(O)c2O)c1C1CC1"
testedon = "BFL-1/A1ΔC (Homo sapiens (Human), UniProt Q16548)"
reportedproperty = "pIC50"
reading = 6.13

[[record]]
compound = "CCc1cs/c(=N\\C2CCCCC2)n1/N=C/c1ccc(O)c(O)c1O"
testedon = "BFL-1/A1ΔC (Homo sapiens (Human), UniProt Q16548)"
reportedproperty = "pIC50"
reading = 5.92

